- TARGET_SYSTEM: human GABAA α2β2γ1 receptor (Homo sapiens (Human), UniProt P47869+Q8N1C3)
- ASSAY_EXPLANATION: Radioligand binding assay, [3H]RO7239181 competition, γ1-containing GABAA subtypes
MEASURED_QUANTITY: Ki (nM)
Answers are plain numbers, in nM.

Exercise: Fill in: Ki on human GABAA α2β2γ1 receptor (Homo sapiens (Human), UniProt P47869+Q8N1C3), entry Cc1nnc2n1-c1cccc(Cl)c1C(c1c(F)cccc1F)=N[C@H]2C [RE-D, reference compound]
Solution: 454

###

- TARGET_SYSTEM: human GABAA α2β2γ1 receptor (Homo sapiens (Human), UniProt P47869+Q8N1C3)
- ASSAY_EXPLANATION: Radioligand binding assay, [3H]RO7239181 competition, γ1-containing GABAA subtypes
- TEST_SETTINGS: HEK293F membranes, [3H]RO7239181 20-30 nM, mean of two determinations; read-out: Ki h-GABAA α2β2γ1
MEASURED_QUANTITY: Ki (nM)
One number for each entry, in nM.

[[record]]
compound = "CCc1ccc2c(c1Cl)C(c1c(F)cccc1F)=N[C@@H](C)c1nnc(C)n1-2 [Example 109]"
target_system = "human GABAA α2β2γ1 receptor (Homo sapiens (Human), UniProt P47869+Q8N1C3)"
measured_quantity = "Ki"
units = "nM"
data_value = 65.8

[[record]]
compound = "OC1N=C(c2c(F)cccc2F)c2c(ccc(Br)c2Cl)-n2cnnc21 (stereo not shown) [Example 31]"
target_system = "human GABAA α2β2γ1 receptor (Homo sapiens (Human), UniProt P47869+Q8N1C3)"
measured_quantity = "Ki"
units = "nM"
data_value = 41

[[record]]
compound = "C[C@@H]1N=C(c2ncccc2F)c2c(ccc(Br)c2Cl)-n2cnnc21 [Example 84]"
target_system = "human GABAA α2β2γ1 receptor (Homo sapiens (Human), UniProt P47869+Q8N1C3)"
measured_quantity = "Ki"
units = "nM"
data_value = 71.3


Could you now look at the following compound, please?
Exercise: Assign Ki to the following record: C[C@@H]1N=C(c2c(F)cccc2F)c2c(ccc(Cl)c2Br)-n2c1n[nH]c2=O [Example 89]
Solution: 77
